src = ChEMBL document CHEMBL4765432

test.name: Cmax in Sprague-Dawley rat at 20 mg/kg, iv measured upto 12 hrs by LC-MS/MS analysis
Type: ADME, organism-based
Set-up: route intravenous, dose 20 mg/kg, time <=12
applied.conditions: in vivo
attribute.measured: Cmax (ng/mL)

[[record]]
compound_structure_string = "CN(C)CCOc1ccc(-c2cc(=O)c3c(O)cc(OCCCCCC(=O)NO)cc3o2)cc1.Cl"
attribute_measured = "Cmax"
observed_value = 2180


* * *

test.name: Half life in Sprague-Dawley rat at 20 mg/kg, iv measured upto 12 hrs by LC-MS/MS analysis
Type: ADME, organism-based
applied.conditions: in vivo
attribute.measured: half-life

[[record]]
compound_structure_string = "CN(C)CCOc1ccc(-c2cc(=O)c3c(O)cc(OCCCCCC(=O)NO)cc3o2)cc1.Cl"
attribute_measured = "half-life"
observed_value = "1.42 h"


* * *

test.name: MRT in Sprague-Dawley rat at 20 mg/kg, iv measured upto 12 hrs by LC-MS/MS analysis
Assay type: ADME, organism-based
applied.conditions: in vivo
attribute.measured: MRT (h)

[[record]]
compound_structure_string = "CN(C)CCOc1ccc(-c2cc(=O)c3c(O)cc(OCCCCCC(=O)NO)cc3o2)cc1.Cl"
attribute_measured = "MRT"
observed_value = 1.25


* * *

system: Histone deacetylase 2 (Homo sapiens, UniProt Q92769)
Sequence (Q92769 whole entry): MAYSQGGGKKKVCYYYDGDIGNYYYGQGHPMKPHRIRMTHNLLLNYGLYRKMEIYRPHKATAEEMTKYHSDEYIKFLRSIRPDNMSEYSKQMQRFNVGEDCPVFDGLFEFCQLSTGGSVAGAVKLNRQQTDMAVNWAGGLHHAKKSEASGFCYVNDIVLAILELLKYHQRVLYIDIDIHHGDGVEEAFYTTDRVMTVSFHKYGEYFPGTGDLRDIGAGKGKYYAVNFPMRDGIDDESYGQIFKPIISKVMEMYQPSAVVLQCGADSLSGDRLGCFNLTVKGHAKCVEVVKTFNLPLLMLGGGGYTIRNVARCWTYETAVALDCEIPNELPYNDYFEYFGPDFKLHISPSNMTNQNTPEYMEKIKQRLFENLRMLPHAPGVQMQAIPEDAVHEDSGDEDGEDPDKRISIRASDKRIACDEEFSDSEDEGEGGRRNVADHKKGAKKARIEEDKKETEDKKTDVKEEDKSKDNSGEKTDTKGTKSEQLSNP
test.name: Inhibition of recombinant human C-terminal GST-tagged full length HDAC-2 expressed in baculovirus infected in Sf9 cells using Boc-Lys (q-Ac)-AMC as substrate incubated for 10 mins followed by substrate addition and measured after 30 mins by fluorescence based assay
attribute.measured: IC50 (nM)

[[record]]
compound_structure_string = "CN(C)CCOc1ccc(-c2cc(=O)c3c(O)cc(OCCCCCC(=O)NO)cc3o2)cc1.Cl"
observed_value = 58.5


* * *

system: Histone deacetylase 8 (Homo sapiens, UniProt Q9BY41)
Sequence (Q9BY41 whole entry): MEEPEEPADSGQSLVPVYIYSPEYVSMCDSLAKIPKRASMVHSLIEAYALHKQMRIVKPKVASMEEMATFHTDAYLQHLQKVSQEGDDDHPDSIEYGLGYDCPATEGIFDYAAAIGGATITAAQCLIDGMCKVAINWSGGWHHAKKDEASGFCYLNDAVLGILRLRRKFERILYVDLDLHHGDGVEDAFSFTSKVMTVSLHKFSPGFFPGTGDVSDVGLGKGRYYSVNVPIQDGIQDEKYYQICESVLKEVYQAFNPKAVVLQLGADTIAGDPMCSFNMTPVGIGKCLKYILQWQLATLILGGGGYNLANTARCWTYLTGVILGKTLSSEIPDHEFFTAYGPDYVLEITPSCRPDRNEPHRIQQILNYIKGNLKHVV
test.name: Inhibition of recombinant human N-terminal GST-tagged full length HDAC-8 expressed in baculovirus infected in Sf9 cells using Boc-Lys (q-Ac)-AMC as substrate incubated for 10 mins followed by substrate addition and measured after 30 mins by fluorescence based assay
attribute.measured: IC50 (nM)

[[record]]
compound_structure_string = "CN(C)CCOc1ccc(-c2cc(=O)c3c(O)cc(OCCCCCC(=O)NO)cc3o2)cc1.Cl"
observed_value = 2500


* * *

system: Histone deacetylase 4 (Homo sapiens)
Sequence (P56524 whole entry): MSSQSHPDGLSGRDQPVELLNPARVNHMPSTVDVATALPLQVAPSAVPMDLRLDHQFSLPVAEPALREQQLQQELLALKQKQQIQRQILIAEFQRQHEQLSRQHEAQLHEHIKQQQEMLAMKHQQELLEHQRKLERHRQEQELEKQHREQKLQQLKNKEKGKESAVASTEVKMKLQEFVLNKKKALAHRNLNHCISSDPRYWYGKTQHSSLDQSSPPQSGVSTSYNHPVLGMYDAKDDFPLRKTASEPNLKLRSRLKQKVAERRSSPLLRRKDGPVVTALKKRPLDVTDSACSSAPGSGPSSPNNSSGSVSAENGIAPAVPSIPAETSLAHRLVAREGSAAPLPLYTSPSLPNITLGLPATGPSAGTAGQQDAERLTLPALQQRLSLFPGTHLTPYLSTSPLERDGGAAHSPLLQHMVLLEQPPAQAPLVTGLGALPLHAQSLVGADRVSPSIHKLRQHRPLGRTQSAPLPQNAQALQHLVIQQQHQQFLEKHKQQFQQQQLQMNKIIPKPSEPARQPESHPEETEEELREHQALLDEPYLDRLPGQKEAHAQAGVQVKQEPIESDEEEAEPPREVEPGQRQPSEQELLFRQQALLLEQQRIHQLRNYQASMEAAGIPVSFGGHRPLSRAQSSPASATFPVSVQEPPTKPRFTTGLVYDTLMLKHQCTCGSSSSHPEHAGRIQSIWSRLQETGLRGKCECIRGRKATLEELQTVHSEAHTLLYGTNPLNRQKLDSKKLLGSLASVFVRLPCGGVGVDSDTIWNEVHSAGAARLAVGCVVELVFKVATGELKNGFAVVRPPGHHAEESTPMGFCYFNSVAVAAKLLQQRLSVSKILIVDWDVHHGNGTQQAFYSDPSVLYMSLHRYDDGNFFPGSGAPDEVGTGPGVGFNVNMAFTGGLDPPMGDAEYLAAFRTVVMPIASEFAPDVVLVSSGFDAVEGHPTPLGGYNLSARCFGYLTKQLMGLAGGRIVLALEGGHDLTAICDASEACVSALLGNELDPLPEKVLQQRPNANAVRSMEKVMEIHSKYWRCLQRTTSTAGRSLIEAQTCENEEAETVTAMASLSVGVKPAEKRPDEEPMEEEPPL
test.name: Inhibition of recombinant human N-terminal GST-tagged HDAC-4 (612 to end residues) expressed in baculovirus infected in Sf9 cells using Boc-Lys (q-Ac)-AMC as substrate incubated for 10 mins followed by substrate addition and measured after 30 mins by fluorescence based assay
pIC50: −log10 of the molar value.
attribute.measured: pIC50

[[record]]
compound_structure_string = "CN(C)CCOc1ccc(-c2cc(=O)c3c(O)cc(OCCCCCC(=O)NO)cc3o2)cc1.Cl"
observed_value = 6.51


* * *

system: Voltage-gated inwardly rectifying potassium channel KCNH2 (Homo sapiens)
Sequence (Q12809 whole entry): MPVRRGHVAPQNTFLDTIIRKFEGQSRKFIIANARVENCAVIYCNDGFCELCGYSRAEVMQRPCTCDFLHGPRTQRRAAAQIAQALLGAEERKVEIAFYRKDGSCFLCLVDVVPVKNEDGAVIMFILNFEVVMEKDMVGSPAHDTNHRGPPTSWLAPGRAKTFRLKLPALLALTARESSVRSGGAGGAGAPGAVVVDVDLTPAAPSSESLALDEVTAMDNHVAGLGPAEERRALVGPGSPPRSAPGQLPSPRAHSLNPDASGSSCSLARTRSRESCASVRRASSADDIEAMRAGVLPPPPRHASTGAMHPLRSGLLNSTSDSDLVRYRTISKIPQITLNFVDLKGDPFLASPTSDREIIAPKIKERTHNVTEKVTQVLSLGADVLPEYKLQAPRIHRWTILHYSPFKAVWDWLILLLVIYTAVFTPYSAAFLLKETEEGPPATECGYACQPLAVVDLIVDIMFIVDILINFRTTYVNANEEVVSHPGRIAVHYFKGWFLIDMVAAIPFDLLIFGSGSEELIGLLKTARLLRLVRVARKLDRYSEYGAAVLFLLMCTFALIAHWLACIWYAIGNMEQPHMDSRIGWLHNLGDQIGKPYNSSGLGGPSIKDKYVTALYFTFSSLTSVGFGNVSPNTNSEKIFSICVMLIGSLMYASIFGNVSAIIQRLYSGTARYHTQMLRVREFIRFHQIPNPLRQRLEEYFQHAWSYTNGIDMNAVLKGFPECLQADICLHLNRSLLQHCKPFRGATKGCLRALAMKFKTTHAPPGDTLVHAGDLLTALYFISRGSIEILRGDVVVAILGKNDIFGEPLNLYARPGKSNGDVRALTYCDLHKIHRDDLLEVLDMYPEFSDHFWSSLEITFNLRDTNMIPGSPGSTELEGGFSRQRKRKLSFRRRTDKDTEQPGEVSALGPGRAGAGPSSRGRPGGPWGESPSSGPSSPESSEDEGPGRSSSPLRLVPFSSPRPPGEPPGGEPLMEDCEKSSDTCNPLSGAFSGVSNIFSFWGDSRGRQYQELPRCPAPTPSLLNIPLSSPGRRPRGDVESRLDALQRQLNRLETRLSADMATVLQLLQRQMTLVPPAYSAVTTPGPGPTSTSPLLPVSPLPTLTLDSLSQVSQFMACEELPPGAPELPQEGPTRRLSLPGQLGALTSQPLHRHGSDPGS
attribute.measured: IC50 (µM)

[[record]]
compound_structure_string = "CN(C)CCOc1ccc(-c2cc(=O)c3c(O)cc(OCCCCCC(=O)NO)cc3o2)cc1.Cl"
unit_of_measurement = "µM"
observed_value = 1.2


* * *

Test system: PC-3
test.name: Cytotoxicity against human PC-3 cells assessed as reduction in cell viability incubated for 48 hrs by MTT assay
Assay type: functional, cell-based
applied.conditions: PC-3, 48 h
pIC50: −log10 of the molar value.
attribute.measured: pIC50

[[record]]
compound_structure_string = "CN(C)CCOc1ccc(-c2cc(=O)c3c(O)cc(OCCCCCC(=O)NO)cc3o2)cc1.Cl"
observed_value = 5.72


* * *

Test system: Bcap37
test.name: Cytotoxicity against human Bcap37 cells assessed as reduction in cell viability incubated for 48 hrs by MTT assay
Type: functional, cell-based
applied.conditions: Bcap37, 48 h
attribute.measured: IC50

[[record]]
compound_structure_string = "CN(C)CCOc1ccc(-c2cc(=O)c3c(O)cc(OCCCCCC(=O)NO)cc3o2)cc1.Cl"
observed_value = "3.28 µM"


* * *

system: Histone deacetylase 9 (Homo sapiens, UniProt Q9UKV0)
Sequence (Q9UKV0 whole entry): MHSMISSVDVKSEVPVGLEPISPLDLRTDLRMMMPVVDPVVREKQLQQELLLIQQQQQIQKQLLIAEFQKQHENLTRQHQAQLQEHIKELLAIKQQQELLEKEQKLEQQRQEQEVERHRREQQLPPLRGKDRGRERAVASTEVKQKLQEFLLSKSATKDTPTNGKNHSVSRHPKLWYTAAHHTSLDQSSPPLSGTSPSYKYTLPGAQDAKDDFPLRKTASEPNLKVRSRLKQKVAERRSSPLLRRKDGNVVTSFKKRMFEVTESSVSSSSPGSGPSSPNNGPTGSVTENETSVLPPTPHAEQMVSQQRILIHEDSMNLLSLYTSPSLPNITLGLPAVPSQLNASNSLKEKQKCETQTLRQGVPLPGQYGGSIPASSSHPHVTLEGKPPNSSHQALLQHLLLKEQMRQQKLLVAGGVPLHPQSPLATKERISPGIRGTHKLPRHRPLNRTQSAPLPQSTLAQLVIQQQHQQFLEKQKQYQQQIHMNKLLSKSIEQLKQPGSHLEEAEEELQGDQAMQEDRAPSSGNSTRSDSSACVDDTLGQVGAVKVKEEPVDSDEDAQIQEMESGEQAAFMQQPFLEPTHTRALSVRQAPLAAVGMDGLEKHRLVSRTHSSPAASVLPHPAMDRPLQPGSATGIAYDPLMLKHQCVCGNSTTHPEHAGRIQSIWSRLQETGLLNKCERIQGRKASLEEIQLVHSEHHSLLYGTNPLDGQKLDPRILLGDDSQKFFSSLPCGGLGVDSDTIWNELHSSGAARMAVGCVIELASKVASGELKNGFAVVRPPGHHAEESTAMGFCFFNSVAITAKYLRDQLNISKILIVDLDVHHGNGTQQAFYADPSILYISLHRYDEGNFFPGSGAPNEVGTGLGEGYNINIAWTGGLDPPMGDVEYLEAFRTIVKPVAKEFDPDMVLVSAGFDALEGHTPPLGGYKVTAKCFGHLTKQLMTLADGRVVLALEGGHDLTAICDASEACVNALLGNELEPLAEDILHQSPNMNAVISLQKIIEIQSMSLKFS
test.name: Inhibition of recombinant human N-terminal GST-tagged HDAC-9 (548 to end residues) expressed in baculovirus infected in Sf9 cells using Boc-Lys (q-Ac)-AMC as substrate incubated for 10 mins followed by substrate addition and measured after 30 mins by fluorescence based assay
attribute.measured: IC50

[[record]]
compound_structure_string = "CN(C)CCOc1ccc(-c2cc(=O)c3c(O)cc(OCCCCCC(=O)NO)cc3o2)cc1.Cl"
attribute_measured = "IC50"
observed_value = "> 10 µM"


* * *

test.name: Cmax in Sprague-Dawley rat at 20 mg/kg, po measured upto 12 hrs by LC-MS/MS analysis
Format: ADME, organism-based
Parameters: route oral, dose 20 mg/kg, time <=12
applied.conditions: in vivo
attribute.measured: Cmax (ng/mL)

[[record]]
compound_structure_string = "CN(C)CCOc1ccc(-c2cc(=O)c3c(O)cc(OCCCCCC(=O)NO)cc3o2)cc1.Cl"
unit_of_measurement = "ng/mL"
observed_value = 1280


* * *

system: Histone deacetylase 11 (Homo sapiens, UniProt Q96DB2)
Sequence (Q96DB2 whole entry): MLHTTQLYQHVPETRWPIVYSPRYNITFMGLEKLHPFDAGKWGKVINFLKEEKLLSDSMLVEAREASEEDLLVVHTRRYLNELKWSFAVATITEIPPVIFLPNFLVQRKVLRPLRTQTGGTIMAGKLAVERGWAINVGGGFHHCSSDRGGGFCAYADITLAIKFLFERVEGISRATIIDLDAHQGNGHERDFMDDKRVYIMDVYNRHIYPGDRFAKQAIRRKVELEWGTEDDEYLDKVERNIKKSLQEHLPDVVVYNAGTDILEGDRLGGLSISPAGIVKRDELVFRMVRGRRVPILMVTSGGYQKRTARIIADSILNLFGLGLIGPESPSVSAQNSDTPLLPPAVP
test.name: Inhibition of recombinant human N-terminal GST-tagged full length HDAC-11 expressed in baculovirus infected in Sf9 cells using Boc-Lys (q-Ac)-AMC as substrate incubated for 10 mins followed by substrate addition and measured after 30 mins by fluorescence based assay
pIC50: −log10 of the molar value.
attribute.measured: pIC50

[[record]]
compound_structure_string = "CN(C)CCOc1ccc(-c2cc(=O)c3c(O)cc(OCCCCCC(=O)NO)cc3o2)cc1.Cl"
observed_value = 6.75


* * *

Tested on: MDA-MB-231
test.name: Cytotoxicity against human MDA-MB-231 cells assessed as reduction in cell viability incubated for 48 hrs by MTT assay
Format: functional, cell-based
applied.conditions: MDA-MB-231, 48 h
pIC50: −log10 of the molar value.
attribute.measured: pIC50

[[record]]
compound_structure_string = "CN(C)CCOc1ccc(-c2cc(=O)c3c(O)cc(OCCCCCC(=O)NO)cc3o2)cc1.Cl"
observed_value = 5.69


* * *

System: SUM-159-PT
test.name: Cytotoxicity against human SUM159PT cells assessed as reduction in cell viability incubated for 48 hrs by MTT assay
Format: functional, cell-based
attribute.measured: IC50 (nM)

[[record]]
compound_structure_string = "CN(C)CCOc1ccc(-c2cc(=O)c3c(O)cc(OCCCCCC(=O)NO)cc3o2)cc1.Cl"
attribute_measured = "IC50"
observed_value = 277


* * *

test.name: MRT in Sprague-Dawley rat at 20 mg/kg, po measured upto 12 hrs by LC-MS/MS analysis
Type: ADME, organism-based
applied.conditions: in vivo
attribute.measured: MRT (h)

[[record]]
compound_structure_string = "CN(C)CCOc1ccc(-c2cc(=O)c3c(O)cc(OCCCCCC(=O)NO)cc3o2)cc1.Cl"
observed_value = 1.1


* * *

system: Histone deacetylase 3 (Homo sapiens, UniProt O15379)
Sequence (O15379 whole entry): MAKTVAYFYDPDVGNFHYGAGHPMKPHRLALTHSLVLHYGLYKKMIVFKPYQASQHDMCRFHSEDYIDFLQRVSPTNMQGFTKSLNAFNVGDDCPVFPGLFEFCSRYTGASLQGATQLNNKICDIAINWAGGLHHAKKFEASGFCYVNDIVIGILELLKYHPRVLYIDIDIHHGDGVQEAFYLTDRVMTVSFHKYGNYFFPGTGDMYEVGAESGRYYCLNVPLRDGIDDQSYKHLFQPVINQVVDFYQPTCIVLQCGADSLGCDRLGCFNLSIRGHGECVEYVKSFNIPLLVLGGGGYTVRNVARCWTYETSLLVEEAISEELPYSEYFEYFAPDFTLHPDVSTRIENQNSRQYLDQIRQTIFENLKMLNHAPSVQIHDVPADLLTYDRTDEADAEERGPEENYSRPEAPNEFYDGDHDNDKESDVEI
test.name: Inhibition of recombinant human C-terminal GST-tagged full length HDAC-3 expressed in baculovirus infected in Sf9 cells using Boc-Lys (q-Ac)-AMC as substrate incubated for 10 mins followed by substrate addition and measured after 30 mins by fluorescence based assay
attribute.measured: IC50 (nM)

[[record]]
compound_structure_string = "CN(C)CCOc1ccc(-c2cc(=O)c3c(O)cc(OCCCCCC(=O)NO)cc3o2)cc1.Cl"
observed_value = 79.2


* * *

test.name: Oral bioavailability in Sprague-Dawley rat at 20 mg/kg measured upto 12 hrs by LC-MS/MS analysis
Format: ADME, organism-based
applied.conditions: in vivo
attribute.measured: bioavailability (%)

[[record]]
compound_structure_string = "CN(C)CCOc1ccc(-c2cc(=O)c3c(O)cc(OCCCCCC(=O)NO)cc3o2)cc1.Cl"
attribute_measured = "bioavailability"
unit_of_measurement = "%"
observed_value = 57.8


* * *

system: UniProt:Q13547
Sequence (Q13547 whole entry): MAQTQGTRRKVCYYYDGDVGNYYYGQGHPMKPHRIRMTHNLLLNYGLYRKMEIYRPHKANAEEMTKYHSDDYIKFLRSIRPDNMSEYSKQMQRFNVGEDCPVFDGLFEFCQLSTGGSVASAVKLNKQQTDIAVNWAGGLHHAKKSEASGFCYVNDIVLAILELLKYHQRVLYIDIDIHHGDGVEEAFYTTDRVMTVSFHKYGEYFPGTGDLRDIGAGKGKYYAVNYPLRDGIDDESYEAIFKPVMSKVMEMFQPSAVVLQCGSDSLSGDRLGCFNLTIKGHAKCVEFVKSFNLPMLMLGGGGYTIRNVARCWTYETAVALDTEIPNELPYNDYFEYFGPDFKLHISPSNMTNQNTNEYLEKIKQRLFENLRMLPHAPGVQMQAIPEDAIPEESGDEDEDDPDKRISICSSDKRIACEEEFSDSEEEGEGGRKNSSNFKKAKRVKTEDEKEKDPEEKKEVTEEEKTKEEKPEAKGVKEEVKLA
test.name: Inhibition of recombinant human C-terminal GST-tagged full length HDAC-1 expressed in baculovirus infected in Sf9 cells using Boc-Lys (q-Ac)-AMC as substrate incubated for 10 mins followed by substrate addition and measured after 30 mins by fluorescence based assay
pIC50: −log10 of the molar value.
attribute.measured: pIC50

[[record]]
compound_structure_string = "CN(C)CCOc1ccc(-c2cc(=O)c3c(O)cc(OCCCCCC(=O)NO)cc3o2)cc1.Cl"
observed_value = 7.44

